Test: soluble on expression in E. coli; label from the status in PepcDB or PDB records
TEST_READOUT: soluble on expression in E. coli

INSERT INTO measurements (record_sequence, assay_result) VALUES
  ('MGSDKIHHHHHHMTNLNYCRPLSLTTNRCLMNKELETLILSAVDLPTIPLVATKVIEMIEQEDVTIEKIAQTVSADPAVAARILKLSNSAYYGCQRQINTLSGAIMLLGFRTLKSLVVAASLKQICKRFGLTEKMLWEHAVGAAIAARIISANGKFINEETAFLAGLFHDIGKTIMNDLDPSKFQQVMMRCYNEGLPFEEVERSIYSFSHAEVGALVIRKWNFPEALSTAVMNHHDFPNPTLTDQYDLFLTATTCLADKFCKKLGIGERHPDEELDLAKTQEAHLLGYTPETILRDVDQFAQTFEENKSFFIND', 'not soluble'),
  ('MTEKKFIQDPWAKMTTRNGLAGDEVISALQKSIRRGKEKDACEFAYEMYITSPQFEEKLWRRLLAISVEDIGMGNPIAALMINNLNMMRKEFQYNESDRAMFFFHAIRYLCGSEKDRSSDLLKNIVIKSFAMGYVPEIPDIALDKHTTRGQEMGRGSEHFLHEASKVIPQAKVENDYKEQYEEIIKKYDPNHVVPSTFVFNPWQVLEHHHHHH', 'not soluble');
